# ASSAY_SYSTEM: Bcl-2 protein (Recombinant Human Bcl-2 Protein) (Homo sapiens, UniProt P10415)
# Construct: purchased Novus NBP2-34889
# Sequence (P10415 whole entry): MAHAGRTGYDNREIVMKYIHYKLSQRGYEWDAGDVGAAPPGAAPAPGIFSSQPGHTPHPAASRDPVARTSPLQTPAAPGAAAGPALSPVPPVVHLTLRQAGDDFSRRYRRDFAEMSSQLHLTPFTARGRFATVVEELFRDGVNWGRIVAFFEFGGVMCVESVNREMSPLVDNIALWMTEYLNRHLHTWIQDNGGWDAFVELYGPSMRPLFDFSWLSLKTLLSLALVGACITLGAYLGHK
# EXPERIMENT_NOTES: Binding evaluation of mixture library compounds to Bcl-2 using AS-MS (affinity selection mass spectrometry)
# CONDITIONS_USED: AS-MS on the mixture of 1200 library compounds; ASMS Ratio(%)=(A−C)/B×100; replicate n = 1
Documented ASMS ratio (%) n = 1 across a set of compounds

{"COMPOUND": "CCOc1cccc(-c2ccc(CN3CCN(c4ccc(C(=O)N(CC)CC)cc4)CC3)c(CC)c2)c1", "ASMS ratio (%) n = 1": 7.1}
{"COMPOUND": "CCOc1cccc(-c2cnn(-c3cc(C(=O)N4CCN(c5ccc(C(=O)N(CC)CC)cc5)CC4)cc(C(F)(F)F)c3)c2)c1", "ASMS ratio (%) n = 1": 3.8}
{"COMPOUND": "CCOc1cncc(-c2ccc(C(C)N3CCN(c4ccc(C(=O)Nc5ccc(OC)cc5)cc4)CC3)c(F)c2)c1 (stereo not shown)", "ASMS ratio (%) n = 1": "−19.7"}
{"COMPOUND": "CCOc1cccc(C#Cc2ccccc2CN2CCN(c3ccc(C(=O)N(C)CC45CC6CC(CC(C6)C4)C5)nn3)CC2)c1", "ASMS ratio (%) n = 1": "−4.9"}
{"COMPOUND": "CCOc1cncc(-c2ccc(CN3CCN(c4ccc(C(=O)N(C)CC56CC7CC(CC(C7)C5)C6)cc4)CC3)cc2C)c1", "ASMS ratio (%) n = 1": 7.3}
{"COMPOUND": "CCOc1cncc(-c2cc(CN3CCN(c4ccc(C(=O)Nc5ccc(OC)cc5)nn4)CC3)cc(OC(F)(F)F)c2)c1", "ASMS ratio (%) n = 1": 3.3}
{"COMPOUND": "CCOc1cncc(-c2ccc(CN3CCN(c4ccc(C(=O)N(C)CC56CC7CC(CC(C7)C5)C6)nn4)CC3)cc2F)c1", "ASMS ratio (%) n = 1": 4.5}

====

Catalogue of ASMS ratio (%) n = 1 readings, one per entry.
# ASSAY_SYSTEM: Bcl-2 protein (Recombinant Human Bcl-2 Protein) (Homo sapiens, UniProt P10415)
# Construct: purchased Novus NBP2-34889
# EXPERIMENT_NOTES: Binding evaluation of mixture library compounds to Bcl-2 using AS-MS (affinity selection mass spectrometry)
# CONDITIONS_USED: AS-MS, mixture library, Bcl-2; replicate n = 1; ASMS Ratio(%)=(A−C)/B×100
# Method: […] Then, analysis of the 1200 compounds was carried out for samples A, B, and C with TraceFinder 5.1 (Thermo Fisher Scientific) and CHANCE Software (in-house), and the ASMS Ratio (%) was calculated according to the following calculation formula. […]
READOUT: ASMS ratio (%) n = 1

{"MOLECULE": "CCOc1cncc(-c2cc(CN3CCN(c4ccc(C(=O)NS(=O)(=O)CC56CC7CC(CC(C7)C5)C6)nn4)CC3)cc(OC(F)(F)F)c2)c1", "READOUT": "ASMS ratio (%) n = 1", "EXPERIMENTAL_RESULT": 22.0}
{"MOLECULE": "CCOc1cccc(C#Cc2ccccc2CN2CCN(c3ccc(C(=O)NS(=O)(=O)c4ccc(NCCSc5ccccc5)c([N+](=O)[O-])c4)cc3)CC2)c1", "READOUT": "ASMS ratio (%) n = 1", "EXPERIMENTAL_RESULT": 8.8}
{"MOLECULE": "CCOc1cncc(C#Cc2cc(C(=O)N3CCN(c4ccc(C(=O)NS(=O)(=O)c5ccc(NCCSc6ccccc6)c([N+](=O)[O-])c5)cc4)CC3)cc(C(F)(F)F)c2)c1", "READOUT": "ASMS ratio (%) n = 1", "EXPERIMENTAL_RESULT": 26.1}
{"MOLECULE": "CCOc1cccc(C#Cc2cncc(C(=O)N3CCN(c4ccc(C(=O)NS(=O)(=O)CC56CC7CC(CC(C7)C5)C6)cc4)CC3)c2)c1", "READOUT": "ASMS ratio (%) n = 1", "EXPERIMENTAL_RESULT": 0.0}
{"MOLECULE": "CCOc1cccc(-c2ccc(CN3CCN(c4ccc(C(=O)NS(=O)(=O)CC56CC7CC(CC(C7)C5)C6)cc4)CC3)c(CC)c2)c1", "READOUT": "ASMS ratio (%) n = 1", "EXPERIMENTAL_RESULT": "−3.0"}
{"MOLECULE": "CCOc1cccc(-c2ccc(C(=O)N3CCN(c4ccc(C(=O)NS(=O)(=O)CC56CC7CC(CC(C7)C5)C6)cc4)CC3)cc2C)c1", "READOUT": "ASMS ratio (%) n = 1", "EXPERIMENTAL_RESULT": 4.6}
{"MOLECULE": "CCOc1cccc(-c2ccc(CN3CCN(c4ccc(C(=O)NS(=O)(=O)CC56CC7CC(CC(C7)C5)C6)cc4)CC3)cc2C)c1", "READOUT": "ASMS ratio (%) n = 1", "EXPERIMENTAL_RESULT": 9.7}
{"MOLECULE": "CCOc1cccc(-c2ccc(C(=O)N3CCN(c4ccc(C(=O)NS(=O)(=O)c5ccc(NCCSc6ccccc6)c([N+](=O)[O-])c5)cc4)CC3)cc2C)c1", "READOUT": "ASMS ratio (%) n = 1", "EXPERIMENTAL_RESULT": "−5.7"}
{"MOLECULE": "CCOc1cccc(-c2ccc(C(C)N3CCN(c4ccc(C(=O)NS(=O)(=O)CC56CC7CC(CC(C7)C5)C6)cc4)CC3)c(F)c2)c1 (stereo not drawn)", "READOUT": "ASMS ratio (%) n = 1", "EXPERIMENTAL_RESULT": 0.0}
{"MOLECULE": "CCOc1cncc(-c2ccc(CN3CCN(c4ccc(C(=O)N(CC)CC)cc4)CC3)c3ccccc23)c1", "READOUT": "ASMS ratio (%) n = 1", "EXPERIMENTAL_RESULT": 0.0}
{"MOLECULE": "CCOc1cccc(-c2cc(CN3CCN(c4ccc(C(=O)NS(=O)(=O)CC56CC7CC(CC(C7)C5)C6)nn4)CC3)cc(C(F)(F)F)c2)c1", "READOUT": "ASMS ratio (%) n = 1", "EXPERIMENTAL_RESULT": 7.2}
{"MOLECULE": "CCOc1cncc(-c2ccccc2CN2CCN(c3ccc(C(=O)NS(=O)(=O)c4ccc(NCCSc5ccccc5)c([N+](=O)[O-])c4)nn3)CC2)c1", "READOUT": "ASMS ratio (%) n = 1", "EXPERIMENTAL_RESULT": 10.2}
{"MOLECULE": "CCOc1cccc(C#Cc2cncc(C(=O)N3CCN(c4ccc(C(=O)NS(=O)(=O)CC56CC7CC(CC(C7)C5)C6)nn4)CC3)c2)c1", "READOUT": "ASMS ratio (%) n = 1", "EXPERIMENTAL_RESULT": 3.1}
{"MOLECULE": "CCOc1cccc(C#Cc2cc(C(=O)N3CCN(c4ccc(C(=O)NS(=O)(=O)c5ccc(NCCSc6ccccc6)c([N+](=O)[O-])c5)nn4)CC3)cc(C(F)(F)F)c2)c1", "READOUT": "ASMS ratio (%) n = 1", "EXPERIMENTAL_RESULT": 0.7}
{"MOLECULE": "CCOc1cncc(-c2cc(CN3CCN(c4ccc(C(=O)NS(=O)(=O)c5ccc(NCCSc6ccccc6)c([N+](=O)[O-])c5)cc4)CC3)cc(OC(C)C)c2)c1", "READOUT": "ASMS ratio (%) n = 1", "EXPERIMENTAL_RESULT": 3.7}
{"MOLECULE": "CCOc1cccc(-c2csc(C(=O)N3CCN(c4ccc(C(=O)NS(=O)(=O)CC56CC7CC(CC(C7)C5)C6)cc4)CC3)c2)c1", "READOUT": "ASMS ratio (%) n = 1", "EXPERIMENTAL_RESULT": 0.0}
{"MOLECULE": "CCOc1cccc(-c2cnn(-c3cc(C(=O)N4CCN(c5ccc(C(=O)NS(=O)(=O)c6ccc(NCCSc7ccccc7)c([N+](=O)[O-])c6)cc5)CC4)cc(C(F)(F)F)c3)c2)c1", "READOUT": "ASMS ratio (%) n = 1", "EXPERIMENTAL_RESULT": 12.4}
{"MOLECULE": "CCOc1cncc(-c2ccccc2CCC(=O)N2CCN(c3ccc(C(=O)NS(C)(=O)=O)nn3)CC2)c1", "READOUT": "ASMS ratio (%) n = 1", "EXPERIMENTAL_RESULT": "−4.0"}
{"MOLECULE": "CCOc1cccc(-c2ccc(CN3CCN(c4ccc(C(=O)NS(=O)(=O)c5ccc(NCCSc6ccccc6)c([N+](=O)[O-])c5)cc4)CC3)c3ccccc23)c1", "READOUT": "ASMS ratio (%) n = 1", "EXPERIMENTAL_RESULT": 30.6}
{"MOLECULE": "CCOc1cccc(-c2ccc(C(=O)N3CCN(c4ccc(C(=O)NS(=O)(=O)CC56CC7CC(CC(C7)C5)C6)nn4)CC3)cc2F)c1", "READOUT": "ASMS ratio (%) n = 1", "EXPERIMENTAL_RESULT": 4.7}
{"MOLECULE": "CCOc1cccc(-c2ccc(CN3CCN(c4ccc(C(=O)NS(=O)(=O)c5ccc(NCCSc6ccccc6)c([N+](=O)[O-])c5)nn4)CC3)cc2F)c1", "READOUT": "ASMS ratio (%) n = 1", "EXPERIMENTAL_RESULT": 14.7}
{"MOLECULE": "CCOc1cccc(-c2csc(CN3CCN(c4ccc(C(=O)N(CC)CC)nn4)CC3)c2)c1", "READOUT": "ASMS ratio (%) n = 1", "EXPERIMENTAL_RESULT": "−2.1"}
{"MOLECULE": "CCOc1cncc(-c2cc(OC)c(CN3CCN(c4ccc(C(=O)NS(=O)(=O)CC56CC7CC(CC(C7)C5)C6)cc4)CC3)c(OC)c2)c1", "READOUT": "ASMS ratio (%) n = 1", "EXPERIMENTAL_RESULT": 0.0}
{"MOLECULE": "CCOc1cncc(-c2ccc(C(=O)N3CCN(c4ccc(C(=O)NS(=O)(=O)c5ccc(NCCSc6ccccc6)c([N+](=O)[O-])c5)cc4)CC3)cc2F)c1", "READOUT": "ASMS ratio (%) n = 1", "EXPERIMENTAL_RESULT": 0.0}
